# Tested on: SLK
# setup conditions: concentration: 1 μM, replicates: in singlicate; n = 1;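 also: KINOMEscan kinase panel screen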
Could you please report measured %Inh for the items listed next?
Respond with the bare value in %.

Prompt: Given the compound COC(=O)c1cccc(NC(=O)NC2CCN(c3ccnc(Nc4ccc(OC)cc4)n3)C2)c1 (stereo not drawn) , what is its reported %Inh?
Completion: 7

Prompt: Given the compound COc1cccc(NC(=O)Nc2ccc(C)c(-c3ccc(C(=O)Nc4ccncc4)cc3)c2)c1 , what is its reported %Inh?
Completion: 7

Prompt: Given the compound O=C(Nc1n[nH]c2nc(-c3cccs3)c(Br)cc12)C1CC1 , what is its reported %Inh?
Completion: 7

###

Could you please report measured %Inh for the items listed next?
# Test system: ERBB2
# setup conditions: concentration: 1 μM, replicates: in singlicate; n = 1
Respond with the bare value in %.

Prompt: Given the compound Cc1cnc(N)c(/C=C/c2cncc(C(=O)NCCc3ccc(Cl)cc3Cl)c2)c1.Cl , what is its reported %Inh?
Completion: 7

Prompt: Given the compound COc1ccc(Nc2nccc(N3CCC(NC(=O)c4cc5ccccc5s4)C3)n2)cc1 (stereo not shown) , what is its reported %Inh?
Completion: 1

Prompt: Given the compound COc1ccc2cc(-c3nc(-c4ccccc4C(C)C)[nH]c3-c3ccncc3)ccc2c1 , what is its reported %Inh?
Completion: 5

Prompt: Given the compound CSc1ccc(-c2nc3n(c2-c2ccncc2)CCC3)cc1 , what is its reported %Inh?
Completion: 0

Prompt: Given the compound COc1cc2ncnc(Nc3cccc(Br)c3)c2cc1OC.Cl , what is its reported %Inh?
Completion: 97.1

Prompt: Given the compound CNCc1ccc2nc(NC(=O)c3ccc(C(C)(C)C)cc3)cn2c1 , what is its reported %Inh?
Completion: 17

Prompt: Given the compound COC(=O)c1cccc(NC(=O)NC2CCN(c3ccnc(Nc4ccc(OC)cc4)n3)C2)c1 (stereo not shown) , what is its reported %Inh?
Completion: 65

Prompt: Given the compound COc1cccc(NC(=O)Nc2ccc(C)c(-c3ccc(C(=O)Nc4ccncc4)cc3)c2)c1 , what is its reported %Inh?
Completion: 0

Prompt: Given the compound CS(=O)(=O)CCNCc1nc(-c2ccc3ncnc(Nc4ccc(OCc5ccccc5)c(Cl)c4)c3c2)cs1.Cl , what is its reported %Inh?
Completion: 100

Prompt: Given the compound Fc1ccc(-c2nn3cccc(F)c3c2-c2ccncc2)cc1 , what is its reported %Inh?
Completion: 39

Prompt: Given the compound CCCCc1nn2ncccc2c1-c1ccnc(NC2CC2)n1 , what is its reported %Inh?
Completion: 21

Prompt: Given the compound Cc1ccc(-c2nc(Nc3ccncc3)c3ccccc3n2)s1 , what is its reported %Inh?
Completion: 0

Prompt: Given the compound Fc1ccc(-c2nc[nH]c2-c2ccncc2)cc1 , what is its reported %Inh?
Completion: 41

Prompt: Given the compound COc1cccc(C2=C(Nc3cc(Cl)c(O)c(Cl)c3)C(=O)NC2=O)c1 , what is its reported %Inh?
Completion: 0

Prompt: Given the compound Cc1ccc(NC(=O)Nc2ccc(Cl)c(C(F)(F)F)c2)cc1-c1ccc(C(=O)Nc2ccncc2)cc1 , what is its reported %Inh?
Completion: 0

Prompt: Given the compound O=c1cc(N2CCOCC2)nc2n(Cc3cccc(Cl)c3Cl)c3ccccc3n12 , what is its reported %Inh?
Completion: 6

Prompt: Given the compound Nc1ncnc2occ(-c3ccc4c(c3)CCN4C(=O)Cc3cc(F)ccc3F)c12 , what is its reported %Inh?
Completion: 30

Prompt: Given the compound CC(=O)c1c(C)c2cnc(Nc3ccn(C)n3)nc2n(C2CCCC2)c1=O , what is its reported %Inh?
Completion: 0

Prompt: Given the compound CCn1c(-c2ccccc2)nc2cnccc21 , what is its reported %Inh?
Completion: 0

Prompt: Given the compound COC(=O)C(Cc1ccccc1)NC(=O)NC1CCN(c2ccnc(Nc3ccc(F)cc3)n2)C1 (stereo not shown) , what is its reported %Inh?
Completion: 51

Prompt: Given the compound Cc1ccc(NC(=O)Nc2ccc(Cl)cc2)cc1-c1ccc(C(=O)Nc2ccncc2)cc1 , what is its reported %Inh?
Completion: 25

Prompt: Given the compound Cc1ccc(NC(=O)c2ccc(Cl)cc2)cc1-c1ccc(C(=O)Nc2ccncc2)cc1 , what is its reported %Inh?
Completion: 30

Prompt: Given the compound Cc1ccc(NC(=O)Nc2ccccc2)cc1-c1ccc(C(=O)Nc2ccncc2)cc1 , what is its reported %Inh?
Completion: 0

Prompt: Given the compound COc1ccc(CSc2nnc(-c3ccc4nccn4c3)o2)cc1C(F)(F)F , what is its reported %Inh?
Completion: 0

Prompt: Given the compound CNC(=O)c1ccc(C)c(-n2c(C)cc(OCc3ccc(F)cc3F)c(Br)c2=O)c1 , what is its reported %Inh?
Completion: 0

Prompt: Given the compound O=C(Nc1n[nH]c2cc(-c3ccsc3)ccc12)C1CC1 , what is its reported %Inh?
Completion: 0

Prompt: Given the compound COc1cccc(CNC(=O)NC2CCN(c3ccnc(Nc4ccc(F)cc4)n3)C2)c1 (stereo not shown) , what is its reported %Inh?
Completion: 2

Prompt: Given the compound Nc1cccc(-c2ccc3c(N)n[nH]c3c2)n1 , what is its reported %Inh?
Completion: 0

Prompt: Given the compound CC(C)c1ccc(O)cc1Nc1ccnc2ccc(C(F)(F)F)cc12 , what is its reported %Inh?
Completion: 10

Prompt: Given the compound COc1ccc(-c2coc3ccc(-c4nnc(C)o4)cc23)cc1 , what is its reported %Inh?
Completion: 0

Prompt: Given the compound COc1ccc(CSc2nnc(-c3ccc4ncsc4c3)o2)cc1C(F)(F)F , what is its reported %Inh?
Completion: 0

Prompt: Given the compound O=c1cc(N2CCOCC2)nc2n(Cc3ccccc3F)ccn12 , what is its reported %Inh?
Completion: 0

Prompt: Given the compound Cc1ccccc1-c1cc(-c2c[nH]nc2-c2ccccn2)ccn1 , what is its reported %Inh?
Completion: 22

Prompt: Given the compound O=C(Nc1n[nH]c2nc(-c3cccs3)c(Br)cc12)C1CC1 , what is its reported %Inh?
Completion: 0

###

# System: FGFR2
# setup conditions: concentration: 1 μM, replicates: in singlicate; n = 1
measure: %Inh (%)
Respond with the bare value in %.

Prompt: Given the molecule CC(C)c1ccc(O)cc1Nc1ccnc2ccc(C(F)(F)F)cc12 [GW482059] , what is its reported %Inh?
Completion: 2

Prompt: Given the molecule Cc1ccc(-c2nc(Nc3ccncc3)c3ccccc3n2)s1 [GSK189015] , what is its reported %Inh?
Completion: 30

Prompt: Given the molecule CC(=O)c1c(C)c2cnc(Nc3ccc(N4CCNCC4)cn3)nc2n(C2CCCC2)c1=O , what is its reported %Inh?
Completion: 0

Prompt: Given the molecule CNc1nc(-c2ccc3c(N)n[nH]c3c2)cc(N2C[C@@H](C(=O)Nc3ccccc3)CC[C@H]2C)n1 [GSK2298859] , what is its reported %Inh?
Completion: 0

Prompt: Given the molecule COc1cccc(NC(=O)Nc2ccc(C)c(-c3ccc(C(=O)Nc4ccncc4)cc3)c2)c1 [GSK1398474] , what is its reported %Inh?
Completion: 0

Prompt: Given the molecule CS(=O)(=O)Cc1ccc(Nc2nccc(-c3c(-c4cccc(NC(=O)C5CCCCC5)c4)nn4ncccc34)n2)cc1 [GSK350559] , what is its reported %Inh?
Completion: 41

Prompt: Given the molecule CCn1c(-c2c(N)noc2C)nc2cnccc21 [SB-737856] , what is its reported %Inh?
Completion: 28

Prompt: Given the molecule Cc1ccccc1Cn1ccn2c(=O)cc(N3CCOCC3)nc12 [GSK2269905] , what is its reported %Inh?
Completion: 2

Prompt: Given the molecule O=c1cc(N2CCOCC2)nc2n(Cc3cccc(Cl)c3Cl)c3ccccc3n12 [GSK2299009] , what is its reported %Inh?
Completion: 4

###

# Test system: VEGFR2
# Construct: gene KDR
# setup conditions: concentration: 1 μM, replicates: in singlicate; n = 1
Could you please report measured %Inh for the items listed next?
Respond with the bare value in %.

Prompt: Observed %Inh on VEGFR2 for Cc1cccc2c(-c3ccncn3)c(-c3ccc(F)cc3)nn12 [GW515532] , please.
Completion: 5

Prompt: Observed %Inh on VEGFR2 for CNc1cc(-c2ccc3c(N)n[nH]c3c2)nc(N)n1 [GSK2224810] , please.
Completion: 25

Prompt: Observed %Inh on VEGFR2 for Cc1ccc(NC(=O)Nc2ccccc2)cc1-c1ccc(C(=O)Nc2ccncc2)cc1 [GSK1398471] , please.
Completion: 0

Prompt: Observed %Inh on VEGFR2 for Fc1ccc(-c2nn3cccc(F)c3c2-c2ccncc2)cc1 [GW475620] , please.
Completion: 1

Prompt: Observed %Inh on VEGFR2 for Cc1ccc(NC(=O)Nc2ccccc2F)cc1-c1ccc(C(=O)Nc2ccncc2)cc1 [GSK1398477] , please.
Completion: 0

###

# Test system: CLK2
# setup conditions: concentration: 1 μM, replicates: in singlicate; n = 1
measure: %Inh

Prompt: Given the compound CS(=O)(=O)CCNCc1nc(-c2ccc3ncnc(Nc4ccc5c(cnn5Cc5ccccc5)c4)c3c2)cs1.Cl.Cl [GW569716] , what is its reported %Inh?
Completion: 0%

Prompt: Given the compound COc1ccc(Nc2nccc(NCCNC(=O)Nc3cc(C)ccc3C)n2)cc1 [GSK1379899] , what is its reported %Inh?
Completion: 0%

Prompt: Given the compound Cc1c(Cn2c(C)c(C)n3c(=O)cc(N4CCOCC4)nc23)cccc1C(F)(F)F [GSK2328680] , what is its reported %Inh?
Completion: 0%

Prompt: Given the compound CS(=O)(=O)CCNCc1nc(-c2ccc3ncnc(Nc4ccc(OCc5ccccc5)c(Cl)c4)c3c2)cs1.Cl [GW582764] , what is its reported %Inh?
Completion: 0%

Prompt: Given the compound COc1ccc(CSc2nnc(-c3ccc4ncsc4c3)o2)cc1C(F)(F)F , what is its reported %Inh?
Completion: 39%

Prompt: Given the compound Cc1cccc2c(-c3ccncn3)c(-c3ccc(F)cc3)nn12 [GW515532] , what is its reported %Inh?
Completion: 0%
